Hey, just so you know, these numbers are from PubChem BioAssay (EPA / NIEHS).

protocol summary: CEETOX_H295R_CORTIC: CeeTox H295R High-throughput Steroidogenesis Assay for Corticosterone (CORTIC) (AID 2283437);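 note: corticosterone secreted into medium quantified by mass spectrometry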
experimental conditions: actives raise or lower the signal
Activity calls are given as the source filed them. Rule for the calls: active = hit-call score of the fitted dose curve at least 0.9, where 1 is the maximum; inactive = score below 0.9.
Choose one outcome from this list and give only that: active, inactive

Solved cases (5 shown):
Fill in: this test's call for Clc1ccc(Nc2nnc(Cc3ccncc3)c3ccccc23)cc1 is ___
active

Can you look up the reported call for C[C@]12CC[C@@H]3c4ccc(O)cc4CC[C@H]3[C@@H]1C[C@@H](O)[C@@H]2O for me?
inactive

What did the test return for O=C(CCCN1CCC(O)(c2ccc(Cl)cc2)CC1)c1ccc(F)cc1 ?
inactive

Which outcome did this test record for the compound c1cc[nH]c1 ?
inactive

Tell me the assay call for CC(C)CCOCCC(C)C please.
inactive

As a next step, examine the compound that follows.
Recorded test outcome, item COc1cc([N+](=O)[O-])ccc1N
inactive

---

protocol summary: BSK_hDFCGF_SRB: Viability Assessment in the BioMAP Diversity Plus: hDFCGF Assay (AID 2283061);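 note: cells exposed to compound for 24 h before the read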
experimental conditions: primary human foreskin fibroblasts
Method: BSK_hDFCGF is a cell-based, multiplexed-readout assay that uses foreskin fibroblast, a human skin primary cell, with measurements taken at 24 hours after chemical dosing in a 96-well plate.BSK_hDFCGF_SRB is an assay component measured in the BSK_hDFCGF assay. It measures 0.1% sulforhodamine related to cell death using Sulforhodamine staining technology.Data from the assay component BSK_hDFCGF_SRB was analyzed into 1 assay endpoint. […]
The source made the active and inactive calls. Rule for the calls: active = hit-call score of the fitted dose curve at least 0.9, where 1 is the maximum; inactive = score below 0.9.
Would you mind answering with one of these outcomes? true (active), false (inactive)

Some entries whose results are on file:
Write down the call the test reported for this molecule. Item: CCCCCc1ccc(O)cc1
true

Write down the call the test reported for this molecule. Item: CCCCCCCCCCCCOS(=O)(=O)O
true

Assay result, entry O=C1OC2(c3ccccc31)c1cc(I)c(O)c(I)c1Oc1c2cc(I)c(O)c1I — outcome?
false

Please share the test call associated with Cc1ccc(N=Nc2c(O)ccc3ccccc23)c(C)c1 .
false

Test call for this molecule, please: Oc1ccc(Cc2ccccc2O)cc1
false

Continuing:
What was the test verdict on COc1cc(OC)nc(NC(=O)NS(=O)(=O)Nc2ccccc2C(=O)N(C)C)n1 ?
false

# fetch the recorded call for CCC(C)c1ccccc1O (stereo not given) here
false

Give the logged outcome of this assay for the following molecule: CCCCC(CC)C(=O)OCCOCCOCCOCCOC(=O)C(CC)CCCC (stereo not given)
false

I'd appreciate the recorded outcome for C=CC(=O)OCCC(F)(F)C(F)(F)C(F)(F)C(F)(F)C(F)(F)C(F)(F)C(F)(F)C(F)(F)F from this test.
false

What was the test verdict on O=C1NS(=O)(=O)c2ccccc21 ?
false

Record lookup: outcome of this test for CCCCC(CC)C(=O)O (stereo not given) ?
false

Each molecule tested received a call. Report the one for N=C(N)c1ccc(OCCCCCOc2ccc(C(=N)N)cc2)cc1 .
true

What was the test verdict on Cc1[nH]nc2c1N=C(c1ccccc1Cl)c1cc([N+](=O)[O-])ccc1N2 ?
false

Outcome logged for O=C(NO)c1ccccc1 in this assay:
false

What was the test verdict on O=C(CC(=O)C(F)(F)C(F)(F)C(F)(F)F)c1cccs1 ?
false

---

Read-out: TIMP metallopeptidase inhibitor 1 (TIMP1), TIMP1 (gene 7076)
protocol summary: BSK_hDFCGF_TIMP1: BioMAP Diversity Plus: hDFCGF Assay for TIMP metallopeptidase inhibitor 1 (TIMP1) Biomarker Activity (AID 2283062)
experimental conditions: primary human foreskin fibroblasts; actives raise or lower the signal
Active and inactive are the calls of the source. Rule for the calls: active = hit-call score of the fitted dose curve at least 0.9, where 1 is the maximum; inactive = score below 0.9.
Lab note: assign the record to one of 1 (yes) (active), 0 (no) (inactive)

Entry CCOC(=O)CN[C@@H](C(=O)N1CC[C@H]1C(=O)NCc1ccc(/C(N)=N/O)cc1)C1CCCCC1 : call = ?
0 (no)

Please indicate how the test categorized NC(=NCCCCCCN=C(N)/N=C(\N)Nc1ccc(Cl)cc1)/N=C(\N)Nc1ccc(Cl)cc1 .
1 (yes)

Hello, I am checking results. What call was entered for O=C1OC2(c3ccccc31)c1cc(I)c(O)c(I)c1Oc1c2cc(I)c(O)c1I ?
1 (yes)

Which result was noted for this molecule in the test: Clc1ccc(Nc2nnc(Cc3ccncc3)c3ccccc23)cc1
0 (no)

Query: recorded result category for OCC(F)(F)C(F)(F)C(F)(F)C(F)(F)C(F)(F)C(F)(F)C(F)(F)C(F)(F)C(F)(F)C(F)(F)C(F)(F)F in this test
0 (no)

Continuing:
Record request — test call for C=COC(=O)C(C)(C)CCCCCC
1 (yes)

Hi team, can someone confirm the assay call for CN(CCO)S(=O)(=O)C(F)(F)C(F)(F)C(F)(F)C(F)(F)C(F)(F)C(F)(F)C(F)(F)C(F)(F)F ?
0 (no)

Short answer needed: outcome of this test for O=C(O)CCC(F)(F)C(F)(F)C(F)(F)C(F)(F)C(F)(F)C(F)(F)F ?
0 (no)

Lab log entry: CC[N+](CC)(CC)Cc1ccccc1 — outcome as called in the assay?
0 (no)

Each molecule tested received a call. Report the one for C=CC(=O)OCCC(F)(F)C(F)(F)C(F)(F)C(F)(F)C(F)(F)C(F)(F)C(F)(F)C(F)(F)F .
0 (no)

# outcome recorded in this test, key = COC1=CC(=O)C[C@@H](C)[C@]12Oc1c(Cl)c(OC)cc(OC)c1C2=O
0 (no)
